System: U2OS
Experiment: Multiplex assay against U2OS
Format: toxicity, cell-based
Conditions: human, 24 h, 1 µM, compound concentration 1 uM, replicate 2
Kindly supply the reported Population Apoptotic (%) values for the records listed here.
One number for each entry, in %.

Study these solved cases before continuing.
>>> readout_value("COc1cc(NC(=O)CCN2CCC(OC(=O)Nc3ccccc3-c3ccccc3)CC2)c(Cl)cc1CNC[C@H](O)c1ccc(O)c2[nH]c(=O)ccc12")
100
>>> readout_value("COc1cc(C(=O)N(CCCc2ccccc2)Cc2ccc(CC(=O)O)cc2)cc(OC)c1C")
73
>>> readout_value("Cc1ccc(/C(=C\\CN2CCCC2)c2ccccn2)cc1")
81
>>> readout_value("COc1ccc2c(c1)C(C(=O)N(Cc1ccc(N(C)C)cc1)c1ccc(C(C)C)cc1)CCC2.Cl (stereo not drawn)")
100
>>> readout_value("CCNC1(C(N)=O)CCN(c2ncnc3c2nc(-c2ccccc2Cl)n3-c2ccc(Cl)cc2)CC1")
80

Dear colleague, could you please provide Population Apoptotic (%) for the compounds listed below?
1. CSc1ccccc1N1CCN(CCCCCC(=O)NC2CCCc3ccccc32)CC1.Cl (stereo not drawn)
2. Cl.Clc1ccc2nsnc2c1NC1=NCCN1 [TIZANIDINE HYDROCHLORIDE]

Key:
[58, 89]

Item: O=C(NCC(=O)N1CC[C@H](N[C@H]2CC[C@@](O)(c3ccc(-c4ncccn4)cn3)CC2)C1)c1cccc(C(F)(F)F)c1 | Population Apoptotic (%): 91

====

Test system: U2OS
Test: Multiplex assay against U2OS
Format: toxicity, cell-based
Conditions: human, 48 h, 1 µM, compound concentration 1 uM, replicate 1
I'd appreciate it if you could supply Total Cell Count values for the items below.
Give bare numbers.

>>> readout_value("CC1(COc2ccc3c(c2)ncn3-c2ccc3cccc(N4CCC(N)CC4)c3n2)COC1 [CRENOLANIB]")
186
>>> readout_value("O=S(=O)(c1ccccc1)c1cnc2c(N3CCNCC3)cccc2c1 [INTEPIRDINE]")
416
>>> readout_value("CCOc1c2c(c(OCC)c3ncccc13)CN(c1ccc(CS(=O)(=O)NC(=O)Cc3ccccc3OC)cc1C)C2=O")
344
>>> readout_value("O=C(NCC(=O)N1CC[C@H](N[C@H]2CC[C@@](O)(c3ccc(-c4ncccn4)cn3)CC2)C1)c1cccc(C(F)(F)F)c1 [PF-4136309]")
443

// moving on: another record for Total Cell Count
Value of Total Cell Count reported for the compound CN(C)c1ccnc2sc3c(=O)n(N4CCCCCC4)cnc3c12 is 486

====

Test system: HEK-293T
Experiment: Multiplex assay against HEK293T
Format: toxicity, cell-based
Settings: human, 24 h, 10 µM, compound concentration 10 uM, replicate 2
# strict inequality: Population Mitochondria Different-Phenotype (%) < 70% yields Fulfilled, everything else yields Not fulfilled

Exercise: Find out if reported Population Mitochondria Different-Phenotype (%) for CC1(COc2ccc3c(c2)ncn3-c2ccc3cccc(N4CCC(N)CC4)c3n2)COC1 is less than 70%
Key: Not fulfilled

Exercise: Strictly below 70%: is that where Population Mitochondria Different-Phenotype (%) of C[C@H]1[C@H]2CC[C@H]3[C@@H]4CC=C5C[C@@H](N(C)C)CC[C@]5(C)[C@H]4CC[C@]23CN1C sits?
Key: Fulfilled

Exercise: # check: Population Mitochondria Different-Phenotype (%) < 70% for CCNC1(C(N)=O)CCN(c2ncnc3c2nc(-c2ccccc2Cl)n3-c2ccc(Cl)cc2)CC1
Key: Not fulfilled

Exercise: Field: below-cutoff. Rule: recorded Population Mitochondria Different-Phenotype (%) strictly less than 70%. Subject: N[C@@]1(C(=O)O)CO[C@H]2[C@H](C(=O)O)[C@H]21
Key: Fulfilled

Exercise: Please check: Population Mitochondria Different-Phenotype (%) for N#Cc1c(N)nc(SCc2csc(-c3ccc(Cl)cc3)n2)c(C#N)c1-c1ccc(OCCO)cc1 , strictly under 70% or not?
Key: Not fulfilled

Exercise: State whether 70% exceeds Population Mitochondria Different-Phenotype (%) recorded for COc1cc(C(=O)N(CCCc2ccccc2)Cc2ccc(CC(=O)O)cc2)cc(OC)c1C .
Key: Fulfilled

Exercise: Does this compound meet the criterion Population Mitochondria Different-Phenotype (%) < 70%? Cc1ccccc1C(=O)Nc1ccc(C(=O)N2CCCC(N(C)C)c3ccccc32)cc1.Cl (stereo not drawn)
Key: Not fulfilled

====

System: HEK-293T
Test: Multiplex assay against HEK293T
Type: toxicity, cell-based
Settings: human, 48 h, 1 µM, compound concentration 1 uM, replicate 1
PARAMETER_MEASURED: Population Apoptotic (%)
Give bare numbers, in %.

Known Population Apoptotic (%) results, listed for orientation:
>>> readout_value("CC[C@H]1OC(=O)[C@H](C)[C@@H](O[C@H]2C[C@@](C)(OC)[C@@H](O)[C@H](C)O2)[C@H](C)[C@@H](O[C@@H]2O[C@H](C)C[C@H](N(C)C)[C@H]2O)[C@@]2(C)CC(C)=C(O2)[C@H](C)[C@@H](O)[C@]1(C)O")
30
>>> readout_value("Cc1ccccc1C(=O)Nc1ccc(C(=O)N2CCCC(N(C)C)c3ccccc32)cc1.Cl (centres undefined)")
13
>>> readout_value("c1cc(OCCCN2CCCCC2)ccc1CN1CCCCC1")
17

With HEK-293T as the test system, CSc1ccccc1N1CCN(CCCCCC(=O)NC2CCCc3ccccc32)CC1.Cl (centres undefined) showed Population Apoptotic (%) of 32

====

System: U2OS
Assay: Multiplex assay against U2OS
Format: toxicity, cell-based
Conditions: human, 48 h, 1 µM, compound concentration 1 uM, replicate 2
PARAMETER_MEASURED: Population Mitochondria Different-Phenotype (%)
One number for each entry, in %.

Consider the following illustrative entries.
>>> readout_value("CCCn1c(=O)c2[nH]c(C3CCCC3)nc2n(CCC)c1=O")
4
>>> readout_value("C[C@H]1[C@H]2CC[C@H]3[C@@H]4CC=C5C[C@@H](N(C)C)CC[C@]5(C)[C@H]4CC[C@]23CN1C")
0
>>> readout_value("C[C@H](NC(=O)c1c(C(F)F)nn(C)c1Oc1cccc(C(F)(F)F)c1)c1ccc(C(=O)O)cc1")
0
>>> readout_value("N[C@@]1(C(=O)O)CO[C@H]2[C@H](C(=O)O)[C@H]21")
5
>>> readout_value("N#Cc1c(N)nc(SCc2csc(-c3ccc(Cl)cc3)n2)c(C#N)c1-c1ccc(OCCO)cc1")
3
>>> readout_value("CC1(COc2ccc3c(c2)ncn3-c2ccc3cccc(N4CCC(N)CC4)c3n2)COC1")
37
>>> readout_value("COc1cc(NC(=O)CCN2CCC(OC(=O)Nc3ccccc3-c3ccccc3)CC2)c(Cl)cc1CNC[C@H](O)c1ccc(O)c2[nH]c(=O)ccc12")
1
>>> readout_value("CN(C)c1ccnc2sc3c(=O)n(N4CCCCCC4)cnc3c12")
5
>>> readout_value("CNC[C@H](O)c1ccc(O)c(O)c1 [EPINEPHRINE]")
3
>>> readout_value("CC(C)(C)c1ccc(S(=O)(=O)Nc2ccc(Cl)cc2C(=O)c2cc[n+]([O-])cc2)cc1")
2

Hi! Can you tell me Population Mitochondria Different-Phenotype (%) for each of these compounds?
1. CSCC[C@H](NC=O)C(=O)N[C@@H](CC(C)C)C(=O)N[C@@H](Cc1ccccc1)C(=O)O
2. CC[C@H]1OC(=O)[C@H](C)[C@@H](O[C@H]2C[C@@](C)(OC)[C@@H](O)[C@H](C)O2)[C@H](C)[C@@H](O[C@@H]2O[C@H](C)C[C@H](N(C)C)[C@H]2O)[C@@]2(C)CC(C)=C(O2)[C@H](C)[C@@H](O)[C@]1(C)O
3. CC(=O)NCCc1c(Cc2ccccc2)[nH]c2ccccc12
4. COc1ccc2c(c1)C(C(=O)N(Cc1ccc(N(C)C)cc1)c1ccc(C(C)C)cc1)CCC2.Cl (centres undefined)
5. CCOc1c2c(c(OCC)c3ncccc13)CN(c1ccc(CS(=O)(=O)NC(=O)Cc3ccccc3OC)cc1C)C2=O

Key:
[1, 12, 1, 4, 3]

Provide each entry's Population Mitochondria Different-Phenotype (%) from the list below.
1. c1cc(OCCCN2CCCCC2)ccc1CN1CCCCC1
2. Cl.Clc1ccc2nsnc2c1NC1=NCCN1 [TIZANIDINE HYDROCHLORIDE]
3. CCCN1CCC[C@@H]2Cc3n[nH]cc3C[C@H]21.Cl [QUINPIROLE HYDROCHLORIDE]
4. COc1cc(C(=O)N(CCCc2ccccc2)Cc2ccc(CC(=O)O)cc2)cc(OC)c1C

Key:
1. 4
2. 2
3. 5
4. 5

Batch request: Population Mitochondria Different-Phenotype (%) for each of the following compounds.
1. Oc1c(CN2CCN(c3ccccn3)CC2)cc(Cl)c2cccnc12
2. O=C1COc2nccc(-c3ccccc3F)c2CN1Cc1cc(C(F)(F)F)cc(C(F)(F)F)c1

Key:
1. 1
2. 5

Hi there! I need Population Mitochondria Different-Phenotype (%) for each item below, if you can.
1. O=S(=O)(c1ccccc1)c1cnc2c(N3CCNCC3)cccc2c1 [INTEPIRDINE]
2. Cc1ccc(C(C)(O)c2nc3ccccc3s2)c(C)c1 (centres undefined)
3. C[C@@H]1C[C@H]2[C@@H]3CCC4=CC(=O)C=C[C@]4(C)[C@@]3(F)[C@@H](O)C[C@]2(C)[C@@]1(O)C(=O)CO
4. O=C(O)Cc1ccccc1Nc1c(Cl)cccc1Cl
5. Cc1ccc(F)cc1C(=O)Nc1ccc(C(=O)N2Cc3cccn3Cc3ccccc32)c(Cl)c1
6. O=C(O)c1cc2ccccc2c(Cc2c(O)c(C(=O)O)cc3ccccc23)c1O

Key:
1: 2; 2: 3; 3: 3; 4: 4; 5: 11; 6: 3

Sourced from ChEMBL document CHEMBL5058577
